target: Cytochrome P450 2C19 (Homo sapiens, UniProt P33261)
Sequence (P33261 whole entry): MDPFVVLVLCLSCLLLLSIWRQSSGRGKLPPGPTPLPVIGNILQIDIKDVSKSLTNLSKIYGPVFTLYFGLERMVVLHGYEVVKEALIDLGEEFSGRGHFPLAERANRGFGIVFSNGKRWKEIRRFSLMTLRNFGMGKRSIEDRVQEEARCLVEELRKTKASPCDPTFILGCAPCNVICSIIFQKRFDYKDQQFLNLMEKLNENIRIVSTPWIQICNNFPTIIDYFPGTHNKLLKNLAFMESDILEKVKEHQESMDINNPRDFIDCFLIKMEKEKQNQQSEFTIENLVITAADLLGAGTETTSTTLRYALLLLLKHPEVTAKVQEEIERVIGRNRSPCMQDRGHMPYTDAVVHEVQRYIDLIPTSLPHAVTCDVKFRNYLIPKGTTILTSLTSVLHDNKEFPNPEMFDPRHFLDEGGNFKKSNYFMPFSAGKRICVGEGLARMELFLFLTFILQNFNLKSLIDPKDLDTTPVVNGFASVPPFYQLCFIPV
pIC50: −log10 of the molar value.
endpoint: pIC50

INSERT INTO assay_data (structure, endpoint, observedvalue) VALUES
  ('CN(C)c1ccc(-c2nc3c(N4CCN(CC(=O)Nc5nccs5)CC4)c(Cl)cnc3[nH]2)cc1', 'pIC50', '< 5.00');

---

Biological target: Aurora kinase A (Homo sapiens)
Sequence (O14965 whole entry): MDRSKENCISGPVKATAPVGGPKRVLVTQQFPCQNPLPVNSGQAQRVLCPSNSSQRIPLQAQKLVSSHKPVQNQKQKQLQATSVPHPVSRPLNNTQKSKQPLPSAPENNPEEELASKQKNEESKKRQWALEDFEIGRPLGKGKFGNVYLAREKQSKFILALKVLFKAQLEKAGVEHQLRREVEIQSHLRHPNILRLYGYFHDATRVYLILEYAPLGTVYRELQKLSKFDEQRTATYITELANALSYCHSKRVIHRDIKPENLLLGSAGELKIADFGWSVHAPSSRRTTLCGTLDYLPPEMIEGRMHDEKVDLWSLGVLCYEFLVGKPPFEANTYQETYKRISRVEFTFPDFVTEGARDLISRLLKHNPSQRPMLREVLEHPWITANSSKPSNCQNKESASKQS
pIC50: −log10 of the molar value.
endpoint: pIC50

INSERT INTO measurements (molecule, observedvalue) VALUES
  ('CN(C)c1ccc(-c2nc3c(Cl)ccnc3[nH]2)cc1', 5.62),
  ('CN(C)c1ccc(-c2nc3cc(Cl)cnc3[nH]2)cc1', 6.24),
  ('c1cnc2nc(-c3ccc(C4CCCCN4)cc3)[nH]c2c1 (stereo not given)', 5.36),
  ('COc1cc2ncnc(N3CCN(Cc4ccc(F)cc4)CC3)c2cc1OC', 4.40),
  ('Cc1cnc2[nH]c(-c3ccc(N(C)C)cc3)nc2c1', 5.16);

---

experiment: Metabolic stability in mouse liver microsomes after 30 mins; format: ADME, Microsome; conditions: read-out: Stability
endpoint: remaining at 0.5 h

INSERT INTO results (structure, endpoint, observedvalue) VALUES
  ('CN(C)c1ccc(-c2nc3c(N4CCN(CC(=O)Nc5nccs5)CC4)c(Cl)cnc3[nH]2)cc1', 'remaining at 0.5 h', '75%');

---

target: Cytochrome P450 2C9 (Homo sapiens, UniProt P11712)
Sequence (P11712 whole entry): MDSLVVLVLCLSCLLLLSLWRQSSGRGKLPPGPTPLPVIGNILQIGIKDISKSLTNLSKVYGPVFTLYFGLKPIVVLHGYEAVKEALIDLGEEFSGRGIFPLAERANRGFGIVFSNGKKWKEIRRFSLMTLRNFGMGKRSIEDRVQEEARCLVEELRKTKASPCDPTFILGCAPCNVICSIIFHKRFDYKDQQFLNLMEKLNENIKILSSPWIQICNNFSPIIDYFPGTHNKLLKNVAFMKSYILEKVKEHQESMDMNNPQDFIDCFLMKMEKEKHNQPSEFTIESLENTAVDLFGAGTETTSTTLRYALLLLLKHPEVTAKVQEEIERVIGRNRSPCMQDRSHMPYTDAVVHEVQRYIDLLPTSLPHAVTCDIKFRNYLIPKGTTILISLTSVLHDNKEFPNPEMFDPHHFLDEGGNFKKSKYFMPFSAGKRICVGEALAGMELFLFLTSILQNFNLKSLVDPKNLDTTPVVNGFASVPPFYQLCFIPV
endpoint: IC50 (µM)

INSERT INTO measurements (structure, endpoint, readoutunits, observedvalue) VALUES
  ('CN(C)c1ccc(-c2nc3c(N4CCN(CC(=O)Nc5nccs5)CC4)c(Cl)cnc3[nH]2)cc1', 'IC50', 'µM', 10);

---

target: Cytochrome P450 2D6 (Homo sapiens, UniProt P10635)
Sequence (P10635 whole entry): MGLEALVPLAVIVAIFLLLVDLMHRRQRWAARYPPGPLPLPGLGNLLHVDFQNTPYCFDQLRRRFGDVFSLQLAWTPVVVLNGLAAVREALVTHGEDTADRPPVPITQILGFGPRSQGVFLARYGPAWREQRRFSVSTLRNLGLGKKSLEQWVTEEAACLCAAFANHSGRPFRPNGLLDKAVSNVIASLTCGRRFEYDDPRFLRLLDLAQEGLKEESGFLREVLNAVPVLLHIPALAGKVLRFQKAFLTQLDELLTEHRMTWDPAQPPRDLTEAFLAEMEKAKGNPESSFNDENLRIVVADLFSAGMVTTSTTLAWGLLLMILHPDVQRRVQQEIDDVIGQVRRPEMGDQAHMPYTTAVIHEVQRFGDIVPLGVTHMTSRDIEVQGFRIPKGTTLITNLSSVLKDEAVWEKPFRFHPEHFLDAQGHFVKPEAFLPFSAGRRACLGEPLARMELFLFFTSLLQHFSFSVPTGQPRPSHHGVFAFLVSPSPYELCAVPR
pIC50: −log10 of the molar value.
endpoint: pIC50

INSERT INTO measurements (structure, endpoint, observedvalue) VALUES
  ('CN(C)c1ccc(-c2nc3c(N4CCN(CC(=O)Nc5nccs5)CC4)c(Cl)cnc3[nH]2)cc1', 'pIC50', '< 5.00');

---

biological target: Aurora kinase B (Homo sapiens, UniProt Q96GD4); assay: Inhibition of recombinant aurora B kinase
Sequence (Q96GD4 whole entry): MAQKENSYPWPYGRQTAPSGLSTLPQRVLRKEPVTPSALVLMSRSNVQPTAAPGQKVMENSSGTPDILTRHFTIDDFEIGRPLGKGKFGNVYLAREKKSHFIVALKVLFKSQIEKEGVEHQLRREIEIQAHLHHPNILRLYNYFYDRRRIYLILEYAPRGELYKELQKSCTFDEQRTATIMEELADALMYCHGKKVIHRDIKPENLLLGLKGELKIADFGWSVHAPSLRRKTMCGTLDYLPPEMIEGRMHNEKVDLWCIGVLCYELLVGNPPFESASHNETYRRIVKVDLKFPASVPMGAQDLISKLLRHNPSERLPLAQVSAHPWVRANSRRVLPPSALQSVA
endpoint: IC50 (nM)

INSERT INTO measurements (structure, endpoint, observedvalue) VALUES
  ('CN(C)c1ccc(-c2nc3c(N4CCN(CC(=O)Nc5nccs5)CC4)c(Cl)cnc3[nH]2)cc1', 'IC50', 198);
